# Tested On: T1, human 5T4-His protein (human, UniProt Q13641 32-355)
# T1 construct: also called recombinant 5T4 protein (human 5T4-his tag); human 5T4 protein; not shown: His tag
# T1 sequence (looked up): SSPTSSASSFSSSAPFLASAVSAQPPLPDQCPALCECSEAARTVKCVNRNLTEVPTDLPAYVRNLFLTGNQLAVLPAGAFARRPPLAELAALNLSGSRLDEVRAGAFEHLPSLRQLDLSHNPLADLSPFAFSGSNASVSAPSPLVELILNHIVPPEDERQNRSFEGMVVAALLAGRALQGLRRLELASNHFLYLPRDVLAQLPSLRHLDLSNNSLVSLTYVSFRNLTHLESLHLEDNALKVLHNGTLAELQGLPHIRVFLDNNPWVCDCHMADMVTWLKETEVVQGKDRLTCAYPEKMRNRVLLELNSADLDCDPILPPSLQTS
# Experimental Details: SPR Biacore, Protein A capture, 50 nM 5T4-His
Consider the cut-off 300000 M⁻¹ s⁻¹. If the recorded kon is strictly smaller, the label is satisfied; if not, the label is not satisfied.

Identify whether the binder 159D5-P1 (antibody, V domains shown, chimeric 159D5 with S62A (DS to DA) in VH CDR2; also called PTM removal antibody of 159D5-P1; 159D5-VH.S62A with 159D5 VL) VH: DVQLVESGGGLVQPGGSRKLSCTASGFTFSNFGMHWVRQAPETGLEWVAYISSGSSTFYYADAVKGRFTISRDNPKNTLFLQMTSLRSEDTAMYFCARSPAYYRYGLDYWGQGTTLTVSS VL: DIVLTQSPASLAVSLGQRATISCRASQSVSSSTFSYMHWYQQKPGQPPKLLIKSSSNLESGVPARFSGSGSGTDFTLNIHPVEEEDTATYYCQHSWEIPYTFGGGTKLEIK records kon below 300000 M⁻¹ s⁻¹. not satisfied

Same thing, different binder: Hu159D5-8 (antibody, V domains shown, humanized) VH: EVQLVESGGGVVQPGRSLRLSCAASGFTFSNFGMHWVRQAPGKGLEWVAYISSGSSTFYYADSVKGRFTISRDNSKNTLYLQMNSLRAEDTAVYFCARSPAYYRYGLDYWGQGTTVTVSS VL: DIVMTQTPLSLSVTPGQPASISCRASQSVSSSTFSYMHWYQQKPGQPPQLLIKSSSNLESGVPDRFSGSGSGTDFTLKISRVEAEDVGVYYCQHSWEIPYTFGGGTKVEIK satisfied

Repeat for the following binder: 159D5 chimeric antibody (antibody, V domains shown, chimeric mAb) VH: DVQLVESGGGLVQPGGSRKLSCTASGFTFSNFGMHWVRQAPETGLEWVAYISSGSSTFYYADSVKGRFTISRDNPKNTLFLQMTSLRSEDTAMYFCARSPAYYRYGLDYWGQGTTLTVSS VL: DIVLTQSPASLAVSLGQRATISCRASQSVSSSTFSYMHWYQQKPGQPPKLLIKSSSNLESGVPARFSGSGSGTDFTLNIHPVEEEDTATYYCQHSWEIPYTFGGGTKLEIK not satisfied

Quick one: Hu159D5-2 (antibody, V domains shown, humanized) VH: EVQLVESGGGVVQPGRSLRLSCAASGFTFSNFGMHWVRQAPGKGLEWVAYISSGSSTFYYADSVKGRFTISRDNSKNTLYLQMNSLRAEDTAVYYCARSPAYYRYGLDYWGQGTTVTVSS VL: DIVMTQTPLSLSVTPGQPASISCRASQSVSSSTFSYMHWYQQKPGQPPQLLIKSSSNLESGVPDRFSGSGSGTDFTLKISRVEAEDVGVYYCQHSWEIPYTFGGGTKVEIK satisfied
